Data credit: ChEMBL document CHEMBL1157557

Species on record: Rattus norvegicus
Assay: Genotoxicity in rat assessed as chromosomal aberration
Assay type: toxicity, organism-based
Settings: in vivo
recorded_metric: Activity

[[record]]
structure_as_smiles = "COC(=O)C(=C(/C)c1cc(OC)cc(OC)c1)/C(=C\\c1ccccc1)C(=O)Nc1ccncc1.Cl"
recorded_measurement = "Non-toxic"

[[record]]
structure_as_smiles = "COC(=O)C(=C(/C)c1cc(OC)cc(OC)c1)/C(=C\\c1ccccc1)C(=O)NCc1cccnc1.Cl"
recorded_measurement = "Non-toxic"

[[record]]
structure_as_smiles = "COC(=O)C(=C(/C)c1cc(OC)cc(OC)c1)/C(=C\\c1ccncc1)C(N)=O.Cl"
recorded_measurement = "Toxic"

[[record]]
structure_as_smiles = "COC(=O)C(=C(/C)c1cc(OC)cc(OC)c1)/C(=C\\c1ccccc1)C(=O)NCc1ccncc1.Cl"
recorded_measurement = "Toxic"

[[record]]
structure_as_smiles = "COC(=O)C(=C(/C)c1cc(OC)cc(OC)c1)/C(=C\\c1ccccc1)C(=O)NN1CCN(C)CC1.Cl"
recorded_measurement = "Non-toxic"

[[record]]
structure_as_smiles = "COC(=O)C(=C(/C)c1cc(OC)c(OC)c(OC)c1)/C(=C\\c1ccccc1)C(N)=O"
recorded_measurement = "Non-toxic"

[[record]]
structure_as_smiles = "COc1cc(/C=C2/C(=O)NC(=O)/C2=C/c2ccccc2)cc(OC)c1OC"
recorded_measurement = "Toxic"

[[record]]
structure_as_smiles = "COc1cc(OC)cc(/C(C)=C2\\C(=O)N(Cc3ccncc3)C(=O)\\C2=C\\c2ccccc2)c1.Cl"
recorded_measurement = "Non-toxic"

